Hello, the source for this data is the supplement of paper PMC3334620, in case you need it.

- assay target: Hmlalpha2 (UniProt P0CY09)
- Sequence: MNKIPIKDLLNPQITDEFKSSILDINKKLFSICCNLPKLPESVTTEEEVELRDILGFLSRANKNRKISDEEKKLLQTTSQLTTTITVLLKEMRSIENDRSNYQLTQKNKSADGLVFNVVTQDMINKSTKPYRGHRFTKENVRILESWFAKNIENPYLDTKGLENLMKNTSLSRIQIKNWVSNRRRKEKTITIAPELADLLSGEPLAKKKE
- protocol notes: PBM E-score (8-mer binding enrichment) (E-score (-0.5 to 0.5)); higher = stronger / more preferred TF binding
- condition: protein concentration: 200 nM; construct: GST-full length
The full ranking holds about 33,000 sequences; the median of “E-score (-0.5 to 0.5)” is about -0.04, and the highest 2% start at about 0.36. Only a selection was taken, and the highest values are over-represented in it overall.
Each entry gets criterion not met if its PBM E-score stays under 0.3, and criterion met if its PBM E-score is 0.3 or above.

# example entries with known answers
ACACGTTG : criterion met
GTATTAGA : criterion not met
ACACGTAC : criterion met
ACACGTAT : criterion met
AGTGCATA : criterion not met
ATGGTAGC : criterion not met
ACACGTCA : criterion met

Now for a further sequence.
[in] I'd appreciate it if you could say whether CTATTACA has PBM E-score at least equal to 0.3.
[out] criterion met

----------
Measured PBM E-score accompanies every entry in the list below.
- assay target: Hmlalpha2 (UniProt P0CY09)
- Sequence: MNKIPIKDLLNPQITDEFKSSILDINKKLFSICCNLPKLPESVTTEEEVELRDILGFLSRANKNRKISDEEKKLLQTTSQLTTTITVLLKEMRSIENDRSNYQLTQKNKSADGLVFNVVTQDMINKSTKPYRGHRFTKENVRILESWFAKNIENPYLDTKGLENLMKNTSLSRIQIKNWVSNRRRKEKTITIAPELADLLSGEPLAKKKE
- protocol notes: PBM E-score (8-mer binding enrichment) (E-score (-0.5 to 0.5)); higher = stronger / more preferred TF binding
- condition: protein concentration: 200 nM; construct: GST-full length
In all, about 33,000 sequences were measured (“E-score (-0.5 to 0.5)”: median about -0.04, highest 2% from about 0.36 on). This excerpt belongs to a sample that is enriched for the highest values.
Answer with the value's number alone.

GACCTCGC : -0.148
CAAAATTC : 0.15
AGTAAACA : 0.337

[in] Request the reported PBM E-score associated with GGTAAACA
[out] 0.333

[in] What do you have for CTCATGGA ?
[out] -0.142

[in] What do you have for GGTGTTAC ?
[out] 0.223

[in] What do you have for TGTAAGAA ?
[out] 0.391

[in] What do you have for ACACGAGG ?
[out] 0.292

[in] What do you have for CTAGGCGC ?
[out] -0.158

----------
- assay target: Hmlalpha2 (UniProt P0CY09)
- Sequence: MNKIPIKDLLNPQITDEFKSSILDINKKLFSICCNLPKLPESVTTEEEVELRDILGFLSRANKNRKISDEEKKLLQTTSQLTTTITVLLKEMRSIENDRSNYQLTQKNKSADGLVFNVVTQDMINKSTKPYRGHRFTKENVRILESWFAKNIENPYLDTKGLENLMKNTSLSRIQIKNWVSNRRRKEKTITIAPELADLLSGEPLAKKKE
- protocol notes: PBM E-score (8-mer binding enrichment) (E-score (-0.5 to 0.5)); higher = stronger / more preferred TF binding
- condition: protein concentration: 200 nM; construct: GST-full length
Over roughly 33,000 sequences, “E-score (-0.5 to 0.5)” has its median near -0.04; the highest 2% begin near 0.36. The sample holds the highest values, similar sequences and a random draw of the others, so the mix is not that of the screen.
Each entry gets Not satisfied if its PBM E-score stays under 0.03, and Satisfied if its PBM E-score is 0.03 or above.

# example entries with known answers
ATGTTTAA : Satisfied
AGCATGTA : Satisfied
GAGCTATA : Not satisfied

[in] I'd appreciate it if you could say whether GCACGCCC has PBM E-score at least equal to 0.03.
[out] Not satisfied

[in] What do you have for TGAATAAA ?
[out] Satisfied

[in] What do you have for ACTGCCTC ?
[out] Not satisfied

[in] What do you have for CAATGTAG ?
[out] Satisfied

[in] What do you have for TTTACAAA ?
[out] Satisfied

----------
- assay target: Hmlalpha2 (UniProt P0CY09)
- Sequence: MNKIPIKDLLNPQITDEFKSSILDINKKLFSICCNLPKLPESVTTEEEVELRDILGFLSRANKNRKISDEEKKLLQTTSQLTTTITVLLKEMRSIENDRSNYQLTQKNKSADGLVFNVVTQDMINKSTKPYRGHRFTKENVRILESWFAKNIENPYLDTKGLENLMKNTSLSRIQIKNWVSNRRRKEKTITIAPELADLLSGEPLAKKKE
- protocol notes: PBM E-score (8-mer binding enrichment) (E-score (-0.5 to 0.5)); higher = stronger / more preferred TF binding
- condition: protein concentration: 200 nM; construct: GST-full length
Whole data set: some 33,000 sequences, median “E-score (-0.5 to 0.5)” near -0.04, cut for the highest 2% near 0.36. Shown is part of a subset that was picked to be rich in the highest values.
readout label: PBM E-score
Answer with the value's number alone.

GTTCTACA : 0.29

[in] Request the reported PBM E-score associated with TCATAGCA
[out] -0.0434

[in] What do you have for CCATAGCA ?
[out] -0.145

[in] What do you have for GGAAGGTA ?
[out] -0.132

[in] What do you have for ACACGCGG ?
[out] 0.324

[in] What do you have for TATCTACA ?
[out] 0.371

[in] What do you have for GCTTAACA ?
[out] 0.378

[in] What do you have for AATACGCC ?
[out] 0.0351

[in] What do you have for CTGTACAC ?
[out] 0.291

[in] What do you have for GCTTAACC ?
[out] -0.00807

[in] What do you have for ACATAACA ?
[out] 0.434

[in] What do you have for AGATGTTA ?
[out] 0.201

[in] What do you have for GGGTACAA ?
[out] 0.0999

[in] What do you have for ACACGCGC ?
[out] 0.304

[in] What do you have for ATTGATGG ?
[out] 0.08

[in] What do you have for ACCGCGAT ?
[out] -0.0546

[in] What do you have for TCAAGCCA ?
[out] -0.0161

[in] What do you have for AGCACCCA ?
[out] -0.176

[in] What do you have for ATGAGCAC ?
[out] -0.067

[in] What do you have for ACTTAACT ?
[out] 0.159

[in] What do you have for CAATGTTA ?
[out] 0.284

----------
- assay target: Hmlalpha2 (UniProt P0CY09)
- Sequence: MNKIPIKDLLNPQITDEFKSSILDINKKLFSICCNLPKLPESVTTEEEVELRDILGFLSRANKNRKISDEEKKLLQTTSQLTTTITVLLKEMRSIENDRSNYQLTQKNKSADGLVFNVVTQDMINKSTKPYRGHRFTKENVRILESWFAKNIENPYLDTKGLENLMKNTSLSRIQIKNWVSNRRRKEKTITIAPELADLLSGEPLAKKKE
- protocol notes: PBM E-score (8-mer binding enrichment) (E-score (-0.5 to 0.5)); higher = stronger / more preferred TF binding
- condition: protein concentration: 200 nM; construct: GST-full length
The full ranking holds about 33,000 sequences; the median of “E-score (-0.5 to 0.5)” is about -0.04, and the highest 2% start at about 0.36. Shown is part of a subset that was picked to be rich in the highest values.
Classification by PBM E-score follows these ranges: class A (below 0.1), class B (0.1 to below 0.3), class C (0.3 or more)

# example entries with known answers
GTAGACGA : class B
CGATGGAC : class A
ACTTGTAC : class B

[in] Returns: class label. Input: CACATCCC
[out] class A

[in] What do you have for AAGTAGTC ?
[out] class A

[in] What do you have for GTGTATGA ?
[out] class B

[in] What do you have for CTGTAGTC ?
[out] class A

----------
- assay target: Hmlalpha2 (UniProt P0CY09)
- Sequence: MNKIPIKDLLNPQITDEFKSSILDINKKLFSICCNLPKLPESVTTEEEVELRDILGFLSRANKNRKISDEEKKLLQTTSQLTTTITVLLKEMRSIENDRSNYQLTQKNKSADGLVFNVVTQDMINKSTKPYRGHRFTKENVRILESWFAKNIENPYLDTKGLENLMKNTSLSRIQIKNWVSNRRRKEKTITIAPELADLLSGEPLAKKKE
- protocol notes: PBM E-score (8-mer binding enrichment) (E-score (-0.5 to 0.5)); higher = stronger / more preferred TF binding
- condition: protein concentration: 200 nM; construct: GST-full length
In all, about 33,000 sequences were measured (“E-score (-0.5 to 0.5)”: median about -0.04, highest 2% from about 0.36 on). The sample holds the highest values, similar sequences and a random draw of the others, so the mix is not that of the screen.
Measured PBM E-score accompanies every entry in the list below.
Answer with the value's number alone.

GCTGTTAC : -0.0161
CGGTAATA : -0.00682
TGCTCTAA : -0.134
CCCCCCGG : -0.366
CAGTAATG : 0.167
ATGTAATA : 0.48

Moving on to the next sequence.
[in] Request the reported PBM E-score associated with ATGTAATG
[out] 0.479
